# METHOD_NOTES: qHTS assay to identify small molecule agonists of the hypoxia (HIF-1) signaling pathway - cell viability counter screen (AID 1224844); further: potency means the concentration at half of the fitted maximal effect; nearly all actives have a fitted effect of over 50% in size
# CONDITION_NOTES: HRE-bla ME-180 viability, CellTiter-Glo luminescence, 17 h; series mostly up to 76.8 µM
Records with an inconclusive call do not appear. Active and inactive are the calls of the source. The call rests on the fitted dose curve.
QUANTITY_MEASURED: Potency

>  <STRUCTURE>
Nc1ccc(C(=O)Nc2ccccc2N)cc1

>  <Potency>
12 µM (active)

$$$$
>  <STRUCTURE>
O=C(O)Cc1cc(I)c(Oc2ccc(O)c(I)c2)c(I)c1

>  <Potency>
38.9 µM (active)

$$$$
>  <STRUCTURE>
COc1ccc([C@@H]2Sc3ccccc3N(CCN(C)C)C(=O)[C@@H]2OC(C)=O)cc1

>  <Potency>
21.3 µM (active)

$$$$
>  <STRUCTURE>
NCCCOCCOCCOCCCN

>  <Potency>
15.5 µM (active)

$$$$

Lookup: Potency for NC(N)=NN=C(/C=C/c1ccc([N+](=O)[O-])o1)/C=C/c1ccc([N+](=O)[O-])o1 ?
Found: 8.49 µM (active)

###

# TARGET: Progesterone receptor (Homo sapiens) (UniProt P06401)
# Sequence (P06401 whole entry, looked up): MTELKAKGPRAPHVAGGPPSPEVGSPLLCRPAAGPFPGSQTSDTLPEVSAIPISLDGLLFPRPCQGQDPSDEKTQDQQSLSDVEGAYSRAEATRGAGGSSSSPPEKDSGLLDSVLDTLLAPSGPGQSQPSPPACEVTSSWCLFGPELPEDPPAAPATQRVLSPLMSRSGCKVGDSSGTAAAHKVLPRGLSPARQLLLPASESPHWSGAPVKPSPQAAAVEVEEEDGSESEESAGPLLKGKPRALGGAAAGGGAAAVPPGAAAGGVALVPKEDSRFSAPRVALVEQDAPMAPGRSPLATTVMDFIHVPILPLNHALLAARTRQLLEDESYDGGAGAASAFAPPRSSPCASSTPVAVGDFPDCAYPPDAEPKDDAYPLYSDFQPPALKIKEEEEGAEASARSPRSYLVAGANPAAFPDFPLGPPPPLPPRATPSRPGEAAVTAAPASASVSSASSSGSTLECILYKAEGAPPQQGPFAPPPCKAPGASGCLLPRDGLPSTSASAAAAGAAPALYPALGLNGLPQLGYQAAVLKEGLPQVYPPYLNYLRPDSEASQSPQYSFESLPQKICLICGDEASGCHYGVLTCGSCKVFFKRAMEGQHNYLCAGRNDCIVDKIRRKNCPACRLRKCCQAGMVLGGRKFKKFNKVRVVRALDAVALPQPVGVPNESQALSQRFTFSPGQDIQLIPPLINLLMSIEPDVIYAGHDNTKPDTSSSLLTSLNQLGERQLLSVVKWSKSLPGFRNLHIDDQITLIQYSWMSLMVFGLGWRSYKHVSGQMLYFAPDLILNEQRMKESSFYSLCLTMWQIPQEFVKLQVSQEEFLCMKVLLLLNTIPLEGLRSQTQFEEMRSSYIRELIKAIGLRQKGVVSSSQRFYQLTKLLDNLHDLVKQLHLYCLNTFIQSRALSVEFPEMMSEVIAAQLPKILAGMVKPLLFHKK
# METHOD_NOTES: qHTS assay to identify small molecule antagonists of the progesterone receptor (PR) signaling pathway (AID 1346795)
# CONDITION_NOTES: PR-UAS-bla HEK293T, beta-lactamase FRET ratio, 16 h; series mostly up to 92.4 µM
Records with an inconclusive call do not appear. Calls of active or inactive are those of the source. Calls come from the whole dose curve; as a rule, active = well fitted inhibition curve with a large enough effect in the signal ratio in the repeat runs (not every such curve was filed as active); inconclusive = weak or mixed curves; inactive = flat fitted curve, though single readings scatter; the % refers to the signal ratio.
Lab note: assign the record to one of 1 (active), 0 (inactive)

// known answers, use as guide
>  <MOLECULE>
CNS(=O)(=O)Cc1ccc2[nH]cc(CCN(C)C)c2c1

>  <ASSIGNED_CLASS>
0

$$$$
>  <MOLECULE>
O=C(/C=C/c1ccc(O)c(O)c1)O[C@@H]1C[C@](O)(C(=O)O)C[C@@H](O)[C@H]1O

>  <ASSIGNED_CLASS>
0

$$$$
>  <MOLECULE>
N[C@H]1C(O)O[C@H](CO)[C@H](O)[C@@H]1O (some centres undefined)

>  <ASSIGNED_CLASS>
0

$$$$
>  <MOLECULE>
CC(=O)Nc1ccc(/C=N/NC(N)=S)cc1

>  <ASSIGNED_CLASS>
0

$$$$
>  <MOLECULE>
NC(=S)N/N=C/c1cccnc1

>  <ASSIGNED_CLASS>
0

$$$$

Lookup: Tell me the recorded outcome of this test for CCCCCOC(=O)c1ccc(O)cc1 .
Found: 1

Lookup: Hello, I am checking results. What call was entered for CCC(=O)OC(C)(C)C1CC=C(C)CC1 (centres undefined) ?
Found: 0

Lookup: Recorded call for Cc1ccc(C)o1 ?
Found: 0

Lookup: Hey, what did the test say about C[C@@H](C1=C(CCN(C)C)Cc2ccccc21)c1ccccn1 ?
Found: 0

Lookup: So what was the verdict on CCCCCC(CO)CCC (centres undefined) in this test?
Found: 0

Lookup: What did the test return for NCCCN(CCO)CCO ?
Found: 0

Lookup: Per the records of this test, what outcome belongs to CCCC(C)C ?
Found: 0

Lookup: Can you look up the reported call for CCCCCCCCCO for me?
Found: 0

Lookup: How did this test come out for CC(=O)N(O)CCCCCNC(=O)CCC(=O)N(O)CCCCCNC(=O)CCC(=O)N(O)CCCCCN ?
Found: 0
